Hey, just so you know, these numbers are from PubChem BioAssay.

Tested on: Plasmodium falciparum Sir2 (PF13_0152, Sir2A)
procedure-summary: Plasmodium falciparum Sir2A binding compounds – biochemical, small-molecule microarray, 635 nm fluorescence, primary screen (AID 1098);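 also: score merges spot fluorescence intensity with its signal-to-noise ratio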
condition: fluorescence 635 nm, higher = more signal
Could you label it Satisfied if measured composite z-score is 1 or higher, and Not satisfied otherwise?

Completed entries (count: 8):
O=C1[C@H]2C=C(Br)[C@H](C[C@@H]2OCCCCCCO)[C@@]12CO2	Satisfied
OB1C=CCC(CCc2ccccc2)O1 (configuration not stated)	Satisfied
COCCOC(=O)N1C(=O)[C@@]2(c3cc(C#CC4=CCCCC4)ccc31)[C@H](C(N)=O)[C@H]1C(=O)O[C@H](c3ccccc3)[C@H](c3ccccc3)N1[C@@H]2c1ccc(O)cc1	Satisfied
O=C1[C@H]2C=C(I)[C@H](C[C@@H]2OCCCCO)[C@@]12CO2	Satisfied
CCCNC(=O)[C@@]1(Sc2ccc(C)cc2)CC(=O)N(Cc2ccccc2C(F)(F)F)[C@@H]1c1ccc(CO)cc1I	Satisfied
NCCCCCNC(=O)[C@H]1C[C@H]2C(=O)N3CCC[C@H]3C(=O)N2[C@H]1c1ccc(O)cc1	Not satisfied
O=C1OCCC=C[C@H]2OC34C=CCN(Cn5nnc6ccccc65)C(=O)[C@H]3N(CCO)C(=O)[C@@H]4C12 (some centres not stated)	Satisfied
[N-]=[N+]=Nc1ccccc1[C@H]1OC(c2ccc(OCCCO)cc2)=N[C@@]1(CCS(=O)(=O)c1ccccc1)C(=O)NCc1ccccc1	Not satisfied

(Q) Is reported composite z-score greater than or equal to 1 here: CC(C)N1CC=CC23O[C@@H]4C=CCOC(=O)[C@@H]4[C@H]2C(=O)N(CCCCCO)[C@@H]3C1=O (some centres not stated)
(A) Not satisfied

(Q) Determine whether measured composite z-score meets or exceeds 1 for CN(C)CCCC[C@@H]1NC(=O)[C@H]2C[C@@H](C(=O)NCCCCCN)[C@@H](c3cccc(OCCO)c3)N2C1=O
(A) Satisfied

(Q) Check if composite z-score >= 1 (inclusive). Item: CCCC[C@@H]1C[C@H]1[C@@H](NC(=O)c1cccnc1)c1ccc(Cl)cc1
(A) Not satisfied

(Q) Check if composite z-score >= 1 (inclusive). Item: Cc1ccc(/C=C/C=O)cc1
(A) Satisfied

(Q) Please tell me: is the molecule O=C1C[C@@](C(=O)NCc2ccccc2)(c2ccc([N+](=O)[O-])cc2)[C@@H](c2ccc(CO)cc2)N1CC12CC3CC(CC(C3)C1)C2 at or over 1 in terms of composite z-score?
(A) Satisfied

(Q) Confirm if composite z-score reported for the molecule O=C1C2C=CC(C(O)C=Cc3ccc([N+](=O)[O-])cc3)N(n3cnnc3)C2C(=O)N1Cc1ccccc1 (configuration not stated) is 1 or above.
(A) Satisfied

(Q) Identify whether the reported composite z-score of the following molecule is 1 or greater: NCCCCCCNC(=O)[C@H]1C[C@H]2C(=O)N[C@@H](Cc3ccccc3)C(=O)N2[C@H]1c1cccc(OCCO)c1
(A) Not satisfied

(Q) Does CC(C)[Si](C#CCCCC#N)(Oc1ccccc1Br)C(C)C have a reported composite z-score of at least 1?
(A) Not satisfied

----------
Test system: Chordin-like protein 2 (CHRDL2)
procedure-summary: compounds binding chordin-like 2 – biochemical, small-molecule microarray, 635 nm fluorescence, primary screen (AID 1126);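 also: printed compound slides probed with Chrdl2 protein at 4 µg/mL for 1 h at 4 C; score merges 667 nm emission intensity with signal to noise over three replicate slides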
condition: fluorescence 635 nm, higher = more signal
composite z-score overview
Give the figure only, with no unit attached.

Example entries begin here.
CC(CO)N1C(=O)[C@@H]2C3C(=O)OCCC/C=C\[C@H]3OC23C=CCN(CCN2CCOCC2)C(=O)[C@@H]13 (some centres undefined)	-0.0493
COc1cc2c(cc1O)C(c1cccs1)N(Cc1ccc([N+](=O)[O-])o1)CC2 (centres undefined)	-0.57
C=C(CCCC)/C(=C/C[C@@H](OC(C)=O)c1ccccc1OCCO)c1cc(C(=O)OC)ccc1OC	-0.354
OCCCC1=CC(C2CC2)N(Cc2cccc(OC(F)(F)F)c2)CC1 (centres undefined)	-0.106
CCCCCCc1nc(-c2ccc(-c3ccc(Cl)c(Cl)c3)o2)cc2c1[Si](C(C)C)(C(C)C)O[C@H]2c1ccccc1	-0.517
COC(=O)c1c(CC[C@@H](CO)NC(=O)NCCc2c[nH]c3ccccc23)oc(C(=O)Cc2ccccc2)c1C(=O)OC	0.149

(Q) Lookup: composite z-score / Chordin-like protein 2 (CHRDL2) / COCCCNC(=O)[C@]1(Cc2ccccc2)N=C(c2ccc(OCCCO)cc2)O[C@@H]1c1ccccc1CN=[N+]=[N-]
(A) -0.431

(Q) What measured composite z-score is associated with C#CCN1[C@H](/C=C/C2CC2)[C@H](Cc2ccccc2)OC(=O)[C@@H]1Cc1ccccc1 on Chordin-like protein 2 (CHRDL2)?
(A) 0.509

(Q) Give the reported composite z-score for C[C@H]1C2[C@H](Cc3ccccc3)NC(=O)[C@]23C(=O)NCC(=O)N2CCC[C@H]2C(=O)NC/C=C/CCC/C=C/C3[C@@H]2O[C@]12C (some centres undefined) (system: Chordin-like protein 2 (CHRDL2)).
(A) -0.143

(Q) Item COCCOC(=O)N1C(=O)[C@@]2(c3ccccc31)[C@H](c1ccc(OCCO)cc1)N1[C@H](c3ccccc3)[C@H](c3ccccc3)OC(=O)[C@H]1[C@@H]2C(=O)N1CCc2cc(OC)c(OC)cc2C1 with Chordin-like protein 2 (CHRDL2) - composite z-score?
(A) 0.584

(Q) What is its composite z-score for Chordin-like protein 2 (CHRDL2)? Entry: C=C(C)[C@@H]1CC=C(C(O)C2C=CC3C(=O)NC(=O)C3N2Nc2ccc(Cl)cc2Cl)CC1 (some centres undefined)
(A) 0.41

(Q) Form entry - test system: Chordin-like protein 2 (CHRDL2); read-out: composite z-score; compound: Cc1ccc(S(=O)(=O)N2C[C@@H](C(=O)O)[C@H](Sc3ccccc3)C[C@H]2c2ccccc2)cc1
(A) -0.75

(Q) Item CC(c1ccccc1)C(O)C1C=CC2C(=O)N(c3ccccc3)C(=O)C2N1Nc1ccccc1 (centres undefined) with Chordin-like protein 2 (CHRDL2) - composite z-score?
(A) -0.298

(Q) API: value(readout=composite z-score, system=Chordin-like protein 2 (CHRDL2)) for record O=C1NC(=O)C2C1C=CC(C(O)C1CC=CCC1)N2Nc1ccccn1 (centres undefined)
(A) 1.05

(Q) Request - read-out composite z-score | tested on Chordin-like protein 2 (CHRDL2) | compound CCOC(=O)C[C@H]1[C@H](OC(=O)c2ccc(C(=O)c3ccccc3)cc2)[C@@H](NC(=O)Cc2ccc(OC)cc2)c2cc(OCCCO)ccc2N1C(=O)c1ccc2ccccc2n1
(A) -0.0473

(Q) What is its composite z-score for Chordin-like protein 2 (CHRDL2)? Entry: C=CCC(OC(C)=O)[C@@H]1[C@@H](N(Cc2cc3ccccc3o2)C(=O)Cc2ccc(OC)cc2)c2cc(OCCCO)ccc2N1C(=O)c1ccc2ccccc2c1 (some centres undefined)
(A) -0.257

(Q) Write down the reported composite z-score of CN1CCC(CCCO)=CC1c1cccs1 (centres undefined) , test system: Chordin-like protein 2 (CHRDL2).
(A) -0.154

(Q) # query: composite z-score | item C=CCOC(=O)[C@H]1[C@@H]2C(=O)O[C@@H](c3ccccc3)[C@@H](c3ccccc3)N2[C@@H](c2ccc(OCCOC(=O)[C@@H]3C[C@@H]4C(=O)N5CCC[C@H]5C(=O)N4[C@@H]3c3cccc(OCCO)c3)cc2)[C@]12C(=O)Nc1ccc(I)cc12 | system: Chordin-like protein 2 (CHRDL2)
(A) 1.18

(Q) // fetch Chordin-like protein 2 (CHRDL2) composite z-score for O=C1C2C=CC(C(O)c3ccc(-c4ccccc4)s3)N(Nc3ccccc3)C2C(=O)N1c1ccccc1 (centres undefined)
(A) 0.0135

(Q) Missing value: composite z-score, Chordin-like protein 2 (CHRDL2), entry CC(C)CCC[C@@H](C)[C@H]1CC[C@@]2(C)C3=C(CC[C@]12C)[C@@]1(C)CC[C@H](OC(=O)c2ccc(C(F)(F)F)nc2)C(C)(C)C1CC3 (some centres undefined) . Fill in?
(A) 0.827

(Q) Provide value of composite z-score for this record tested with Chordin-like protein 2 (CHRDL2): CCCC[C@H]1C[C@@H]1[C@@H]1N(P(=O)(c2ccccc2)c2ccccc2)C[C@@](O)(c2ccccc2)CC12CC2
(A) -1.95

(Q) Requested read-out composite z-score, target or system Chordin-like protein 2 (CHRDL2), entry CN(C)CCCCCCNC(=O)[C@@H]1C[C@@H]2C(=O)N[C@@H](CCCC[N+](C)(C)C)C(=O)N2[C@@H]1c1ccc(O)cc1
(A) 0.918

(Q) Lookup: composite z-score / Chordin-like protein 2 (CHRDL2) / CCOC(=O)C[C@H]1[C@H](OC(=O)c2ccc(C(=O)c3ccccc3)cc2)[C@@H](NC(=O)c2ccccc2)c2cc(OCCCO)ccc2N1C(=O)c1ccccc1
(A) 0.17
